- Measured on: 17-beta-hydroxysteroid dehydrogenase type 1 (Homo sapiens)
pIC50: −log10 of the molar value.
Quantity measured: pIC50

Compound | Quantity measured | Numeric value
C[C@]12CC[C@@H]3c4ccc(O)cc4CC[C@H]3[C@@H]1CC(CCCCCCCC(=O)OCC1OC(n3cnc4c(N)ncnc43)C(O)C1O)[C@@H]2O (stereo partly specified) | pIC50 | 7.03

----------
Sequence of the target: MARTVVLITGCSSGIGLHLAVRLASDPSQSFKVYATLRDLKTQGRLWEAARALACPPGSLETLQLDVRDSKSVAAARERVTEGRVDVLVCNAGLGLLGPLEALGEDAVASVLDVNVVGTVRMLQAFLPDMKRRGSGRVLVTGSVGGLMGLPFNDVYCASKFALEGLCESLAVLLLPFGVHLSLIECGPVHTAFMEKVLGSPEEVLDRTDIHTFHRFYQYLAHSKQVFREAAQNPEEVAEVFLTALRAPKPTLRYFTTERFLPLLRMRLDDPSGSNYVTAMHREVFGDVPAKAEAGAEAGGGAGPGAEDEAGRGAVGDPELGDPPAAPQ

Molecule | Ki [µM]
CCCCCCCCC(=O)OCC1OC(n2cnc3c(N)ncnc32)C(O)C1O (stereo unspecified) | 250
